test system: Cysteinyl leukotriene receptor (Cavia porcellus); assay: In vitro inhibition of leukotriene D4 induced contractions of isolated guinea pig ileum.
Let's look at some compounds and their measured pKB.

[
  {
    "Smiles data": "O=C(O)c1ccoc1Cn1nnc(-c2cccc(/C=C/c3ccc4ccccc4n3)c2)n1",
    "pKB": 7.9
  },
  {
    "Smiles data": "O=C(O)c1ccccc1Cn1nnc(-c2cccc(OCc3nc4ccccc4s3)c2)n1",
    "pKB": 8.3
  },
  {
    "Smiles data": "O=C(O)c1ccccc1Cn1nnc(-c2cccc(CSc3ccc4ccccc4n3)c2)n1",
    "pKB": 7
  },
  {
    "Smiles data": "O=C(O)c1ccccc1Cn1nnc(-c2cccc(/C=C/c3ccc4ccc(Cl)cc4n3)c2)n1",
    "pKB": 8.8
  },
  {
    "Smiles data": "COc1cc(C(=O)O)ccc1Cn1nnc(-c2cccc(/C=C/c3ccc4ccccc4n3)c2)n1",
    "pKB": 7.4
  },
  {
    "Smiles data": "O=C(O)c1ccccc1Cn1nnnc1-c1cccc(OCc2ccc3ccccc3n2)c1",
    "pKB": 6.5
  },
  {
    "Smiles data": "O=C(O)Cc1ccccc1Cn1nnc(-c2cccc(/C=C/c3ccc4ccccc4n3)c2)n1",
    "pKB": 7.7
  },
  {
    "Smiles data": "O=C(O)c1ccccc1Cn1nnc(-c2cccc(/C=C/c3ccc4ccccc4n3)c2)n1",
    "pKB": 8.5
  },
  {
    "Smiles data": "O=C(O)c1ccccc1CCn1nnc(-c2cccc(/C=C/c3ccc4ccc(Cl)cc4n3)c2)n1",
    "pKB": 7.9
  },
  {
    "Smiles data": "O=C(O)c1ccccc1Cn1nnc(-c2cccc(OCc3ccc4ccc(Cl)cc4n3)c2)n1",
    "pKB": 8.7
  },
  {
    "Smiles data": "O=C(O)Cc1ccccc1Cn1nnc(-c2cccc(OCc3ccc4ccccc4n3)c2)n1",
    "pKB": 7.6
  },
  {
    "Smiles data": "O=C(O)c1sccc1Cn1nnc(-c2cccc(/C=C/c3ccc4ccc(Cl)cc4n3)c2)n1",
    "pKB": 7.8
  },
  {
    "Smiles data": "COc1cc(C(=O)O)ccc1Cn1nnnc1-c1cccc(/C=C/c2ccc3ccccc3n2)c1",
    "pKB": 8.2
  },
  {
    "Smiles data": "O=C(O)c1cccc(Cn2nnc(-c3cccc(/C=C/c4ccc5ccccc5n4)c3)n2)c1",
    "pKB": 7.1
  },
  {
    "Smiles data": "O=C(O)c1cc(F)ccc1Cn1nnc(-c2cccc(/C=C/c3ccc4ccc(Cl)cc4n3)c2)n1",
    "pKB": 9.1
  },
  {
    "Smiles data": "COc1cccc(C(=O)O)c1Cn1nnc(-c2cccc(OCc3ccc4ccccc4n3)c2)n1",
    "pKB": 8.4
  }
]

Entry source: ChEMBL document CHEMBL1126269
